target: Bombesin receptor subtype-3 (Homo sapiens)
valueKind: IC50
Record the result as a number with its unit.

Task: Consider the compound CC(C)NC(=O)NS(=O)(=O)c1cnccc1NC1CC2CCC1C2 (stereo unspecified) . State its measured IC50.
Output: 600 nM

----------
Reported Activity values for the following molecules.
molecular target: Bombesin receptor subtype-3 (Mus musculus); assay: Agonist activity at mouse BRS3 by functional assay relative to control
Quick note: give the figure in %, leave out the unit.

CC(C)(C)NC(=O)NS(=O)(=O)c1cnccc1N[C@H]1C[C@H]2CC[C@@H]1C2 (racemic)    91
CC(C)(C)NC(=O)NS(=O)(=O)c1cnccc1O[C@@H]1C[C@H]2CC[C@@H]1C2 (racemic)    92
CC(C)NC(=O)NS(=O)(=O)c1cnccc1N[C@H]1C[C@H]2CC[C@@H]1C2 (racemic)    86
CC(C)(C)OC(=O)NS(=O)(=O)c1cnccc1N[C@@H]1C[C@H]2CC[C@@H]1C2 (racemic)    89
CC(C)(C)NC(=O)NS(=O)(=O)c1cnccc1N[C@H]1C[C@@H]2CC[C@H]1C2    93

Pending molecule:
Task: Consider the molecule CC(C)(C)CC(=O)NS(=O)(=O)c1cnccc1N[C@@H]1C[C@H]2CC[C@@H]1C2 (racemic) . State its measured Activity.
Output: 61

----------
Molecular target: Bombesin receptor subtype-3 (Homo sapiens)
Sequence (P32247 whole entry): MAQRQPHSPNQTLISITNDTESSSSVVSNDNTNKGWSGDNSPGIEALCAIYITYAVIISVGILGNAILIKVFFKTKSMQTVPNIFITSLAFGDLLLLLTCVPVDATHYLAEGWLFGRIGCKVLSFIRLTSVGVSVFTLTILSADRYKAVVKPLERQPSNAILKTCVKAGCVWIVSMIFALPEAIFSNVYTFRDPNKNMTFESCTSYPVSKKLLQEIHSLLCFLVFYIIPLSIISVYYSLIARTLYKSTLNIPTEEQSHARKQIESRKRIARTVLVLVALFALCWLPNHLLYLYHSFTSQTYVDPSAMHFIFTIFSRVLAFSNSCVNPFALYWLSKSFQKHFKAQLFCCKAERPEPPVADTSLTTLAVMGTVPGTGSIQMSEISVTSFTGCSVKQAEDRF
Assay: Binding affinity to human BRS3
Reported IC50 values for the following compounds.

CC(C)(C)NC(=O)NS(=O)(=O)c1cnccc1NCc1ccccc1    > 10000 nM

Task: Consider the compound CC(C)(C)c1csc(NS(=O)(=O)c2cnccc2N[C@@H]2C[C@H]3CC[C@@H]2C3)n1 (racemic) . State its measured IC50.
Output: 2500 nM

Task: Consider the compound CC(C)(C)NC(=O)NS(=O)(=O)c1cnccc1NC(C)(C)c1ccccc1 . State its measured IC50.
Output: 3000 nM

Task: Consider the compound CC(C)NC(=O)NS(=O)(=O)c1cnccc1N[C@@H]1C[C@H]2CC[C@@H]1C2 (racemic) . State its measured IC50.
Output: 510 nM

Task: Consider the compound CC(C)(C)NC(=O)NS(=O)(=O)c1cnccc1N[C@@H]1C[C@H]2CC[C@@H]1C2 (racemic) . State its measured IC50.
Output: 100 nM

Task: Consider the compound CC(C)(C)NC(=O)NS(=O)(=O)c1cnccc1NC1CCc2ccccc21 (racemic) . State its measured IC50.
Output: 3800 nM

Task: Consider the compound CC(C)(C)OC(=O)NS(=O)(=O)c1cnccc1N[C@@H]1C[C@H]2CC[C@@H]1C2 (racemic) . State its measured IC50.
Output: > 10000 nM

Task: Consider the compound O=S(=O)(Nc1nnc(C2CCC2)[nH]1)c1cnccc1N[C@@H]1C[C@H]2CC[C@@H]1C2 (racemic) . State its measured IC50.
Output: 290 nM

----------
target: Bombesin receptor subtype-3 (Homo sapiens); assay: Binding affinity to human BRS3
valueKind: pIC50
API: returns pIC50 as number; meaning -log10 of concentration in mol/L.

Example entries begin here.
O=S(=O)(Nc1nc(C2CCC2)n[nH]1)c1cnccc1NC1CC2CCC1C2 (single isomer, unassigned; faster eluting)    7.17
CC(C)(C)NC(=N)NS(=O)(=O)c1cnccc1N[C@@H]1C[C@H]2CC[C@@H]1C2 (racemic)    5.01
CC(C)(C)NC(=O)NS(=O)(=O)c1cnccc1N[C@H]1C[C@H]2CC[C@@H]1C2 (racemic)    6.64
CC(C)(C)NC(=O)NS(=O)(=O)c1cnccc1O[C@@H]1C[C@H]2CC[C@@H]1C2 (racemic)    6.00
CC(C)(C)NC(=O)NS(=O)(=O)c1cnccc1NC1CCCCC1    6.40

Task: Consider the molecule CN(C(=O)NS(=O)(=O)c1cnccc1N[C@@H]1C[C@H]2CC[C@@H]1C2)C(C)(C)C (racemic) . State its measured pIC50.
Output: 6.19

Task: Consider the molecule CC(C)NC(=O)NS(=O)(=O)c1cnccc1N[C@H]1C[C@H]2CC[C@@H]1C2 (racemic) . State its measured pIC50.
Output: 6.09

Task: Consider the molecule CCC(C)(C)NC(=O)NS(=O)(=O)c1cnccc1N[C@@H]1C[C@H]2CC[C@@H]1C2 (racemic) . State its measured pIC50.
Output: 7.12

Task: Consider the molecule CC(C)(C)NC(=O)NS(=O)(=O)c1cnccc1N[C@H]1C[C@H]2CC[C@]1(C)C2(C)C . State its measured pIC50.
Output: 6.52

Task: Consider the molecule CC(C)(C)NC(=O)NS(=O)(=O)c1cnccc1N[C@H]1C[C@@H]2CC[C@H]1C2 . State its measured pIC50.
Output: 6.20

----------
Reported Vd values for the following compounds.
experiment: Volume of distribution at steady state in Sprague-Dawley rat at 1 mg/kg, iv or 4 mg/kg, po; format: ADME, organism-based; conditions: in vivo, read-out: Vdss

CC(C)(C)NC(=O)NS(=O)(=O)c1cnccc1NC1CC2CCC1C2 (racemic)    0.57 L/kg

Pending compound:
Task: Consider the compound CCC(C)(C)NC(=O)NS(=O)(=O)c1cnccc1NC1CC2CCC1C2 (racemic) . State its measured Vd.
Output: 0.3 L/kg

----------
molecular target: Gastrin-releasing peptide receptor (Homo sapiens)
pEC50: −log10 of the molar value.
valueKind: pEC50

Task: Consider the molecule CC(C)(C)NC(=O)NS(=O)(=O)c1cnccc1NC1CC2CCC1C2 (stereo unspecified) . State its measured pEC50.
Output: < 5.00

----------
Reported clearance values for the following compounds.
experiment: Plasma clearance in Sprague-Dawley rat at 1 mg/kg, iv or 4 mg/kg, po; format: ADME, organism-based

CC(C)(C)NC(=O)NS(=O)(=O)c1cnccc1NC1CC2CCC1C2 (racemic)    14 mL/min/kg

Task: Consider the compound CCC(C)(C)NC(=O)NS(=O)(=O)c1cnccc1NC1CC2CCC1C2 (racemic) . State its measured clearance.
Output: 26 mL/min/kg

----------
Biological target: Bombesin receptor subtype-3 (Homo sapiens)
Sequence (P32247 whole entry): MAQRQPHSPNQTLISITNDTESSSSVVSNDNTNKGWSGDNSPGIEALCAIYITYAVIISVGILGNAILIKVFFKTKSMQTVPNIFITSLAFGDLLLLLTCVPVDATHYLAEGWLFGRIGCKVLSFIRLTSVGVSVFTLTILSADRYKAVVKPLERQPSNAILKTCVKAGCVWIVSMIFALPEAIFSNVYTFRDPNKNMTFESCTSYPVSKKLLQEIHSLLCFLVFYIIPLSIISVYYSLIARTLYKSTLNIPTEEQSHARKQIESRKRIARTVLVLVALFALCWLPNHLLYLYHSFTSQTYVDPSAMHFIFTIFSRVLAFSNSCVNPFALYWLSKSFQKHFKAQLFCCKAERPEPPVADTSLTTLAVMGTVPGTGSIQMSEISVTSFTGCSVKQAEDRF
Experiment: Agonist activity at human BRS3 expressed in HEK293AEQ cells using 10 uM dy-peptide by bioluminescence assay
valueKind: pEC50
API: returns pEC50 as number; meaning -log10 of concentration in mol/L.

Task: // fetch pEC50; item: CC(C)NC(=O)NS(=O)(=O)c1cnccc1NC1CC2CCC1C2 (stereo unspecified) ; system: Bombesin receptor subtype-3 (Homo sapiens)
Output: 6.66

----------
target: Bombesin receptor subtype-3 (Homo sapiens); test: Agonist activity at human BRS3 by functional assay
Reported EC50 values for the following molecules.
Quick note: give the figure in µM, leave out the unit.

CC(C)(C)NC(=O)NS(=O)(=O)c1cnccc1NCc1ccccc1    7.5

Task: Consider the molecule CC(C)(C)NC(=O)NS(=O)(=O)c1cnccc1NC1CCc2ccccc21 (racemic) . State its measured EC50.
Output: 6.8

Task: Consider the molecule CC(C)(C)CC(C)(C)NC(=O)NS(=O)(=O)c1cnccc1N[C@@H]1C[C@H]2CC[C@@H]1C2 (racemic) . State its measured EC50.
Output: 0.35

Task: Consider the molecule CC(C)(C)OC(=O)NS(=O)(=O)c1cnccc1N[C@@H]1C[C@H]2CC[C@@H]1C2 (racemic) . State its measured EC50.
Output: 8.2
